B1: Cold shock protein CspB, P41016 (parent)
chain: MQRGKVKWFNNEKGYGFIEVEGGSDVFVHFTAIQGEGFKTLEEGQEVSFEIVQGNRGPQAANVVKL

Variants of: B1
Details: Bacillus caldolyticus; pH 7; Thermal; CD; Sodium cacodylate-HCl 0.1 M; reversible: yes; structure 1C9O; whole UniProt chain shown
Exercise: for every item that follows, state its recorded Tm.
Numbers only, in °C.

Study these solved cases before continuing.
mutation annotation: Q2L
obs value: 80.9
//
mutation annotation: E46A
obs value: 75.4
//
mutation annotation: Y15F
obs value: 76.7

Please go through the list and note Tm for each variant.
1. G23Q
2. R3E
3. V64T
4. Q53E
5. T31S
6. S24D

OUT:
[74.7, 59.1, 75.1, 76.1, 77.8, 77.8]

Please go through the list and note Tm for each variant.
1. N11S
2. R3E L66E

OUT:
1: 79.2; 2: 44.6
